target_under_test: HIV-1 Env of DU172.17 (HIV-1)
protocol_details: cell-based or functional assay
Please respond with reported neutralization IC50 for every item in the list.

Which value of neutralization IC50 has been reported for CAP256-VRC26.12 (antibody, V domains shown) VH: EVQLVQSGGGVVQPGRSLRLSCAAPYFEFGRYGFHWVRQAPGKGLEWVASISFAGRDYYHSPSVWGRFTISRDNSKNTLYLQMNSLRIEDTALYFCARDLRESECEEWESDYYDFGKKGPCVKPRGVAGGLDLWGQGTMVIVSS VL: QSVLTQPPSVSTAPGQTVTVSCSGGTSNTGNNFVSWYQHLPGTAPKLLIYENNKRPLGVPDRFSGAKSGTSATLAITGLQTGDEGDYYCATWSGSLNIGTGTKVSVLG in the records? > 50 µg/mL

Which value of neutralization IC50 has been reported for CAP256-VRC26.08 (antibody, V domains shown) VH: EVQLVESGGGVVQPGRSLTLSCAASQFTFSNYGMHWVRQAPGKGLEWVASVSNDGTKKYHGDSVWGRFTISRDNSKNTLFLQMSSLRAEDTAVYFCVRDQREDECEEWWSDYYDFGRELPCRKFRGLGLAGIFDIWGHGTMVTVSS VL: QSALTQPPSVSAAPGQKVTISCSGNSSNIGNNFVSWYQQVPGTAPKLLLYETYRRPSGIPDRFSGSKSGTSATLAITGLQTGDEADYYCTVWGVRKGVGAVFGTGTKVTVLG in the records? > 50 µg/mL

Measured values drawn from patent US20200199204A1 for this set.
